Measured IC50 accompanies every entry in the list below.
# Assay system: recombinant human PDE 10A1 (Homo sapiens, UniProt Q9Y233)
# Sequence (Q9Y233 1-779 isoform Q9Y233-1): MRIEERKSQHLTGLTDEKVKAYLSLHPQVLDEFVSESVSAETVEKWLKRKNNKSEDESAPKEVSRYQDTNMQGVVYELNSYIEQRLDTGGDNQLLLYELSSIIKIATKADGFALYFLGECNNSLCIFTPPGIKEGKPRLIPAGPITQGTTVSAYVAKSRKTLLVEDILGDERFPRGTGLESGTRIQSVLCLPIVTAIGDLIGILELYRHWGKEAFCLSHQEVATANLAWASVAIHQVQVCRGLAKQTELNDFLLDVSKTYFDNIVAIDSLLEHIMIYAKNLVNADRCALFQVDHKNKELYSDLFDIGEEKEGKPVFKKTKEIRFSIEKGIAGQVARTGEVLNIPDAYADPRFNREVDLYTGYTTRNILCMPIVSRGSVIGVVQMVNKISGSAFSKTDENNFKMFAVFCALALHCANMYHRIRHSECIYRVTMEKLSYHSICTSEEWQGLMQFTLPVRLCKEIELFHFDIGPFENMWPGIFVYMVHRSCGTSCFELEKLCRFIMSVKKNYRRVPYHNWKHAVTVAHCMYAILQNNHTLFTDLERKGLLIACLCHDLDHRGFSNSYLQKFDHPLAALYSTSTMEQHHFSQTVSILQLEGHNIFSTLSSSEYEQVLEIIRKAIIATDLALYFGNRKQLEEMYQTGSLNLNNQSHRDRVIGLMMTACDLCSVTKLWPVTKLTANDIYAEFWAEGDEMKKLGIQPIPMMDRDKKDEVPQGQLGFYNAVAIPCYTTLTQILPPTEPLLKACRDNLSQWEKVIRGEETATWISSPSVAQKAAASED
# Assay notes: PDE10 biochemical assay (modified two-step method of Thompson and Appleman, or SPA with [3H]-cGMP)
# Setup conditions: PDE10 inhibition

These recorded examples may help you get a feel for the data.
[
  {
    "Compound": "COc1cc(/C=N/NC(=O)CC2Sc3ccccc3NC2=O)cc(OC)c1OC (stereo not drawn) [Compound 1-1]",
    "Assay system": "recombinant human PDE 10A1 (Homo sapiens, UniProt Q9Y233)",
    "IC50": "≤ 1000 nM"
  },
  {
    "Compound": "COc1ccc(/C=N/NC(=O)CSc2cc(C)nc3ccccc23)cc1OC [Compound 5-1]",
    "Assay system": "recombinant human PDE 10A1 (Homo sapiens, UniProt Q9Y233)",
    "IC50": "≤ 1000 nM"
  }
]

[in] Value wanted: IC50 (recombinant human PDE 10A1 (Homo sapiens, UniProt Q9Y233)) of entry CCOc1ccc(/C=N/NC(=O)CSc2nc3ccccc3n2Cc2ccccc2)cc1OC [Compound 4-1]
[out] ≤ 1000 nM
